Molecular target: Ataxin-2 (Homo sapiens) (UniProt Q99700)
Sequence (Q99700 whole entry): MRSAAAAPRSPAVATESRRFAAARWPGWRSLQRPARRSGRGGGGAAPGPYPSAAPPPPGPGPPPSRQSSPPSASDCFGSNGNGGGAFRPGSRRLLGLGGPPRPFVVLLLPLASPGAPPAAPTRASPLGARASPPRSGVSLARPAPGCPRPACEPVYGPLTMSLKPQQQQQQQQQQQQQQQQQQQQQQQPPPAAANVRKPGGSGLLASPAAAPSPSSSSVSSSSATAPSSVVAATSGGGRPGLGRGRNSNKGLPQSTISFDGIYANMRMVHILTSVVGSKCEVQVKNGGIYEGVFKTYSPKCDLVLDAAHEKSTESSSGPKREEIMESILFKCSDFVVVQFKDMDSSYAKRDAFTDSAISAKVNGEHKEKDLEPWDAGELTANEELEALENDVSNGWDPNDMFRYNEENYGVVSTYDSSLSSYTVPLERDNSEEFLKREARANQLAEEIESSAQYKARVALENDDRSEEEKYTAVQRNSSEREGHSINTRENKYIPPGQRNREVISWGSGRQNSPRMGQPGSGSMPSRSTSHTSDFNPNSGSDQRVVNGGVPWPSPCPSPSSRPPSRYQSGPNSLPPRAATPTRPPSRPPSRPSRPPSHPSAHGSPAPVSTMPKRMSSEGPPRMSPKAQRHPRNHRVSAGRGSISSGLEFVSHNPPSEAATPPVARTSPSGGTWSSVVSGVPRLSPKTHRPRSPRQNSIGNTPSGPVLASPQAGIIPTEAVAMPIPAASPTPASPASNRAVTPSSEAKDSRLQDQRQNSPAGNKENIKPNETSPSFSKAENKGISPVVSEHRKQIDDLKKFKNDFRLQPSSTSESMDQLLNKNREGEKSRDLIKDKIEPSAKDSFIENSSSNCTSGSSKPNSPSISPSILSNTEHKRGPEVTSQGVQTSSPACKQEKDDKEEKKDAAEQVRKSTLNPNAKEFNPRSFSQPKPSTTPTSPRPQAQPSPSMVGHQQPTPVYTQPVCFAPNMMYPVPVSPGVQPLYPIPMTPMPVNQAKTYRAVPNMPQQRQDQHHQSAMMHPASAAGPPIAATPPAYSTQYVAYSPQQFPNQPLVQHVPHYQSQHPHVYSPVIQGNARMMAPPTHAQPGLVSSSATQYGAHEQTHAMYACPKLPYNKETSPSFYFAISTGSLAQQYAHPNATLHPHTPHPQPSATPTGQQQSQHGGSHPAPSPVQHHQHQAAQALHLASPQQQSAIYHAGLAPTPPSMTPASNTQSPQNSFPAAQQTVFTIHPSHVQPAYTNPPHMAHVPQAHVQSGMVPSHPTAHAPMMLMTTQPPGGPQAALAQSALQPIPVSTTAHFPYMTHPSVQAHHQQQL
Experiment: qHTS for Inhibitors of ATXN expression.
Type: functional
The whole screen tested about 400,000 compounds, of which about 2,100 (0.53%) were called active. Not shown: some 14% with an inconclusive outcome. No rule for the calls is given here. Many of the other results were omitted from the sample, so actives are more common in it than they were.
I would appreciate it if you answered using one of these outcomes: yes (1) (active), no (0) (inactive)

Record lookup: outcome of this test for Cc1c(C(=O)c2cccc([N+](=O)[O-])c2)c2ccccn2c1CCC#N ?
no (0)

Record lookup: outcome of this test for CSCCC(NC(=O)/C(=C/c1ccc2c(c1)OCO2)NC(=O)c1cccc([N+](=O)[O-])c1)C(=O)O (configuration not stated) ?
no (0)

Record lookup: outcome of this test for O=[N+]([O-])c1ccc(N(c2ccccc2)c2ccccc2)cc1 ?
no (0)

Record lookup: outcome of this test for Brc1cc(Br)c2nc(-c3ccc(N4CCOCC4)cc3)ccc2c1 ?
no (0)

Record lookup: outcome of this test for N#Cc1c(N)n(CCOC(=O)c2cccc([N+](=O)[O-])c2)c2nc3ccccc3nc12 ?
no (0)

Record lookup: outcome of this test for Cc1cccc(CN2CCN(C(=O)CCl)CC2)c1 ?
yes (1)

Record lookup: outcome of this test for CC(C)c1ccc(CN2CCN(C(=O)CCl)CC2)cc1 ?
yes (1)

Record lookup: outcome of this test for CC(C)c1ccc(CN2CCN(S(=O)(=O)c3ccc(Cl)s3)CC2)cc1 ?
no (0)

Record lookup: outcome of this test for Cc1ccc(C)n1NC(=O)c1ccc([N+](=O)[O-])cc1 ?
no (0)

Record lookup: outcome of this test for Cc1cccc(NS(=O)(=O)c2ccc(C)c(C(=O)NC3CCN(Cc4ccccc4)CC3)c2)c1 ?
no (0)

Record lookup: outcome of this test for COc1ccc(-c2nc3c(-c4ccccc4)cnn3cc2C)cc1F ?
no (0)

Record lookup: outcome of this test for Cc1c(Br)c(=O)oc2c(Br)c(O)c(O)cc12 ?
no (0)

Record lookup: outcome of this test for COc1ccccc1CCNC(=O)C(=O)NCC1OCCN1S(=O)(=O)c1ccc([N+](=O)[O-])cc1 (configuration not stated) ?
no (0)

Record lookup: outcome of this test for COc1ccc(-c2nc3cnccn3c2NCc2ccccc2)cc1SC1CCCCC1 ?
no (0)

Record lookup: outcome of this test for COc1ccc(/C=N/NC(=O)c2cccc(C(F)(F)F)c2)cc1 ?
no (0)

Record lookup: outcome of this test for O=C(C#Cc1ccccc1)c1ccc([N+](=O)[O-])cc1 ?
yes (1)

Record lookup: outcome of this test for COc1ccc(-c2csc(-c3cccs3)n2)cc1OC ?
no (0)

Record lookup: outcome of this test for COc1ccc(Cc2c(-c3ccc(OC)c(OC)c3)nc3c(C)cc(Br)cn23)c(C)c1 ?
yes (1)

Record lookup: outcome of this test for CCCCN(C)C1=CC2=CC(=C(C#N)C#N)CCC2CC1 (configuration not stated) ?
no (0)

Record lookup: outcome of this test for COc1ccccc1Cc1c(-c2ccc(OC)c(OC)c2)nc2c3ccccc3ccn12 ?
yes (1)

Record lookup: outcome of this test for C=CCN1CCN(C(=O)CSc2ccccc2)CC1 ?
no (0)

Record lookup: outcome of this test for Nc1ccc(C(=O)N/N=C\c2ccc(OC(=O)c3ccccc3Cl)cc2)cc1 ?
no (0)

* * *

Molecular target: Ataxin-2 (Homo sapiens) (UniProt Q99700)
Assay: qHTS for Inhibitors of ATXN expression.
Type: functional
In all, about 400,000 compounds went through this assay and about 2,100 (0.53%) were called active. About 14% were inconclusive and are not listed. The rule behind the calls is not given here. The entries come from a sample that favours actives as a whole.
I would appreciate it if you answered using one of these outcomes: T (active), F (inactive)

Record lookup: outcome of this test for CC(C)C[C@H](NC(=O)c1[nH]cnc1C(=O)N[C@H](C)c1ccccc1)C(=O)OC(C)(C)C ?
T

Record lookup: outcome of this test for Cc1cccc(N2C(=O)c3cccc4c(N)ccc(c34)C2=O)c1 ?
F

Record lookup: outcome of this test for N#C/C(=C\c1c(N2CCOCC2)nc2ccccn2c1=O)C(=O)NC1CCS(=O)(=O)C1 (stereo not given) ?
F

Record lookup: outcome of this test for Nc1c(C(=O)Nc2ccccc2F)sc2nc(-c3cccnc3)ccc12 ?
F

Record lookup: outcome of this test for CC(C)C[C@H](NC(=O)c1[nH]cnc1C(=O)N[C@@H](Cc1ccccc1)C(=O)OC(C)(C)C)C(=O)OC(C)(C)C ?
T

* * *

Biological target: Ataxin-2 (Homo sapiens)
Test: qHTS for Inhibitors of ATXN expression.
Format: functional
In all, about 400,000 compounds went through this assay and about 2,100 (0.53%) were called active. Roughly 14% stayed inconclusive and do not appear here. No rule for the calls is given here. The full list was thinned out, with actives kept by preference.
I would appreciate it if you answered using one of these outcomes: active, inactive

Record lookup: outcome of this test for O=S(=O)(c1ccccc1)c1ccc(N2CCCCCC2)cc1 ?
inactive

Record lookup: outcome of this test for CC(C(=O)Nc1nc(-c2ccc(F)c(F)c2)cs1)N1C(=O)C2CC=CCC2C1=O (stereo not drawn) ?
inactive

Record lookup: outcome of this test for CN1CCN(Cc2c(O)ccc3cc(-c4ccccn4)c(=O)oc23)CC1 ?
inactive

Record lookup: outcome of this test for Cc1cccc(C2=NN(c3ccccc3)[C@H](CO)[C@H]2c2ccc(F)cc2)c1 ?
inactive

Record lookup: outcome of this test for Cc1cccc(-n2cc(CNCCc3nc(C)cc(C)n3)c(-c3cccc(F)c3)n2)c1 ?
active

Record lookup: outcome of this test for CCCn1c(=N)n(CC(=O)c2ccc([N+](=O)[O-])cc2)c2ccccc21 ?
inactive

Record lookup: outcome of this test for Oc1ccccc1N=Nc1nc(-c2ccccc2)c(-c2ccccc2)[nH]1 ?
active

Record lookup: outcome of this test for CC(C)(C)c1ccc(C(=O)NNc2ncccc2-n2cccc2)cc1 ?
inactive

Record lookup: outcome of this test for CCc1ccc(C(=O)Cn2ccsc2=N)cc1 ?
inactive

Record lookup: outcome of this test for CCN1C/C(=C\c2cc(OC)c(OC)c(OC)c2)C2=NN(c3ccccc3)C(c3cc(OC)c(OC)c(OC)c3)C2C1 (stereo not drawn) ?
inactive

Record lookup: outcome of this test for CCc1ccc(C(=O)c2cc3ccc(O)cc3oc2=O)cc1 ?
inactive

Record lookup: outcome of this test for CCOc1cc(Br)c(C(C)NC(=O)c2cccnc2)cc1OCC (stereo not drawn) ?
inactive

Record lookup: outcome of this test for Cc1cc(C)c(OCCN2CCOCC2)c(Cl)c1 ?
inactive

Record lookup: outcome of this test for O=C(COc1ccccc1C(=O)NCc1ccncc1)Nc1ccc(Br)cc1 ?
inactive

Record lookup: outcome of this test for O=C(N/N=C/c1ccc([N+](=O)[O-])o1)c1cc2ccccc2o1 ?
active

Record lookup: outcome of this test for CC(=O)c1ccc(OCC(=O)OC(C)C(=O)NC2CCCCC2)cc1 (stereo not drawn) ?
inactive

Record lookup: outcome of this test for CCN(C(=O)c1ccco1)c1nc(-c2ccc(OC)cc2)cs1 ?
inactive

Record lookup: outcome of this test for COC(=O)[C@]12CCCCC=C1N(CCC1=CCCCC1)C(=O)[C@H](CC(=O)NCCc1ccccc1OC)C2 ?
active

Record lookup: outcome of this test for COc1cccc(-c2ccc3c(N)c(C(=O)c4ccc(Cl)cc4)sc3n2)c1 ?
inactive

Record lookup: outcome of this test for COc1ccccc1CCNC(=O)CCNS(=O)(=O)c1ccc(NC(C)=O)cc1 ?
inactive

Record lookup: outcome of this test for CC1(C)Cc2c(C#N)c(NCCO)nc(-c3ccco3)c2CO1 ?
inactive

Record lookup: outcome of this test for Cc1ccc(C2C=C(c3ccc(F)cc3)Nc3nc(CCCO)nn32)cc1 (stereo not drawn) ?
inactive

Record lookup: outcome of this test for Cc1ccc(-c2cc(C(=O)Nc3ccccn3)c3ccccc3n2)o1 ?
inactive

Record lookup: outcome of this test for CCOC(=O)C(CC)Sc1ccc2nnc(-c3cccnc3)n2n1 (stereo not drawn) ?
inactive

Record lookup: outcome of this test for Cc1ccccc1-c1nc(C#N)c(N2CCCCC2)o1 ?
inactive

Record lookup: outcome of this test for Cc1ccc(C(=O)N/N=C/c2ccc(-c3ccc(Br)cc3[N+](=O)[O-])o2)o1 ?
inactive

Record lookup: outcome of this test for COc1ccc(C2C=C(c3ccccc3)Nc3nc(NC(C)=O)nn32)cc1 (stereo not drawn) ?
inactive

Record lookup: outcome of this test for COC(=O)[C@]12CCCCC=C1N(CCC1=CCCCC1)C(=O)[C@H](CC(=O)NCc1cccc3ccccc13)C2 ?
active

Record lookup: outcome of this test for CCN(CC)C(=O)c1cccc(-c2csc(C(C)(O)c3cccc(OC)c3)n2)c1 (stereo not drawn) ?
active

Record lookup: outcome of this test for CCOC(=O)c1c(C)oc2c1c(C(c1ccccc1)N1CCOCC1)c(O)c1ccccc12 (stereo not drawn) ?
active

Record lookup: outcome of this test for Cc1ccc(-n2cc(CNCCCN3CCCC3=O)c(-c3ccc(F)cc3)n2)cc1 ?
active

Record lookup: outcome of this test for CCN(CC)C(=O)c1cccc(-c2csc(C(O)c3ccccc3)n2)c1 (stereo not drawn) ?
active

Record lookup: outcome of this test for Cc1onc(C(=O)NC2CCCCC2)c1[N+](=O)[O-] ?
inactive

Record lookup: outcome of this test for CCN(CC)C(=O)CSc1nc(-c2ccccc2)ccc1C#N ?
inactive

Record lookup: outcome of this test for CCN(CC)c1ccc2cc(-c3nc(-c4ccc(OC)cc4)cs3)c(=O)oc2c1 ?
inactive

Record lookup: outcome of this test for COc1ccc([C@@H](C)NC(=O)CCc2nnc(-c3cc(C)on3)o2)cc1 ?
inactive

Record lookup: outcome of this test for O=C(CN1C(=O)CCC1=O)Nc1nc(-c2ccc3ccccc3c2)cs1 ?
inactive

Record lookup: outcome of this test for Cc1ccc2[nH]c(SCC(=O)c3ccc(O)cc3O)nc2c1 ?
inactive

Record lookup: outcome of this test for CCOC(=O)C(CC(=O)O)NCc1ccco1 (stereo not drawn) ?
inactive

Record lookup: outcome of this test for C=CCc1cc(Cl)ccc1OCCCNC(C)C ?
inactive

Record lookup: outcome of this test for Cc1ccc(Cn2c(=N)n(CC(=O)c3ccc([N+](=O)[O-])cc3)c3ccccc32)cc1 ?
active

Record lookup: outcome of this test for O=C(CCCCCn1c(=S)[nH]c2ccc(N3CCOCC3)cc2c1=O)NCc1ccccc1Cl ?
inactive

Record lookup: outcome of this test for CCOC(=O)c1c(N=C(S)N2CCOCC2)sc(C)c1C ?
inactive
